// data source = patent EP4786492A1

system.name: DLL3 endogenously expressed on NCI-H82 cells (UniProt Q9NYJ7)
Sequence (Q9NYJ7 27-618): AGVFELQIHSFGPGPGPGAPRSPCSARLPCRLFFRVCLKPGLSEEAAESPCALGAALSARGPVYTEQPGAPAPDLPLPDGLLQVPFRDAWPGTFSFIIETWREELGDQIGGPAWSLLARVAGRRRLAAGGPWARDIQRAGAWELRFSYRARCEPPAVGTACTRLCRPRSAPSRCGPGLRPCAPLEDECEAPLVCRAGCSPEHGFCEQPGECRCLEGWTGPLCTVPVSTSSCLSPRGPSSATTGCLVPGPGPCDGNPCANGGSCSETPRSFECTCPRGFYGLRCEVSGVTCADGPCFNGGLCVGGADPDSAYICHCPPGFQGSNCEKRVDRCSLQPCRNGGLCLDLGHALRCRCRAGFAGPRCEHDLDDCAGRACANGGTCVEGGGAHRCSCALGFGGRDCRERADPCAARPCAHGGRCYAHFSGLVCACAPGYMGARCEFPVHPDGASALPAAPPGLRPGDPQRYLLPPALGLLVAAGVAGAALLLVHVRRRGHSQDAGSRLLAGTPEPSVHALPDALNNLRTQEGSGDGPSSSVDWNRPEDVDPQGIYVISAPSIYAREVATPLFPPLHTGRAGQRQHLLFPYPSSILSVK
procedure.text: FACS on NCI-H82 cells; antibody 0.0064 nM
reported.endpoint: MFI

binder | reported.endpoint | reported.measurement
Hab015VL5VH1a-hFc (scFv, part only; not given: scFv linker and human IgG1 Fc, V domains shown, not shown: another chain or arm of the molecule; a dimerising Fc or GST; small tags and cut ends) VL: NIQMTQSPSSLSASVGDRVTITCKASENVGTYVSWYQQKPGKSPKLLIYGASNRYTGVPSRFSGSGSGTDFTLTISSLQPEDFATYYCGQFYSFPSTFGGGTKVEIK VH: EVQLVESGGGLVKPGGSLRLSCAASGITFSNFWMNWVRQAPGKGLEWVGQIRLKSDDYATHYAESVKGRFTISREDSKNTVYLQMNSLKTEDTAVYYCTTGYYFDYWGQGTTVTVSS | MFI | 137
Hab015VL5VH1b-hFc (scFv, part only; not given: VL-VH linker and human IgG1 Fc, V domains shown, not shown: another chain or arm of the molecule; a dimerising Fc or GST; small tags and cut ends) VL: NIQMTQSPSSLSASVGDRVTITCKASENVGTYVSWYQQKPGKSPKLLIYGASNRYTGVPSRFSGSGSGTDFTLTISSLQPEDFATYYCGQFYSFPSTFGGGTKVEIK VH: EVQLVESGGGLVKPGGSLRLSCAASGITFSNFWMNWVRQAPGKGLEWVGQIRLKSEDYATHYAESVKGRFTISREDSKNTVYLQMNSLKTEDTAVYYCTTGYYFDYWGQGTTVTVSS | MFI | 139
Hab013VL2VH2a-hFc (scFv, part only; not given: scFv linker and human IgG1 Fc, V domains shown, not shown: another chain or arm of the molecule; a dimerising Fc or GST; small tags and cut ends) VL: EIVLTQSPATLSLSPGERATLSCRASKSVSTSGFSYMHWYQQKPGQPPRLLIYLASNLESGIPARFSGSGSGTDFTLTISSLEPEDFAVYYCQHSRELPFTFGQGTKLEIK VH: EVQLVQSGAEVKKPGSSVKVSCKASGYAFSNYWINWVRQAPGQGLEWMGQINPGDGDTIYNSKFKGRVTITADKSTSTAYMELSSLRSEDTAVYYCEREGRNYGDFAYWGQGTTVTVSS | MFI | 185
mab009 scFv-hFc (Fc fusion, part only; not given: Linker and human IgG1 Fc, not shown: a dimerising Fc or GST) chain, part: DIVMTQSPATLSVTPGDRVSLSCRASQTISDYLHWYQQRSHESPRLLIKYASQSISGIPSRFSGSGSGSDFTLSINSVEPEDVGVYYCQNGHSFPLTFGAGTKLELKEVQLQQSGTVLARPGASVKMSCKTSGYTFTSYWMHWVKQSPGQGLEWIGTIYPGNSDTRYNQKFKDKAYVTAVTSASTAYMELSSLTNEESAVYYCTRSYDYGDLDYWGQGTTLTVSS | MFI | 175
Hab014VL2VH1-hFc (scFv, part only; not given: scFv linker and human IgG1 Fc, V domains shown, not shown: another chain or arm of the molecule; a dimerising Fc or GST; small tags and cut ends) VL: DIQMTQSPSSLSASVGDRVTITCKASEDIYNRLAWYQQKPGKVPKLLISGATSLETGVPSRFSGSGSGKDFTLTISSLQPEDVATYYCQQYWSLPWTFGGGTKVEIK VH: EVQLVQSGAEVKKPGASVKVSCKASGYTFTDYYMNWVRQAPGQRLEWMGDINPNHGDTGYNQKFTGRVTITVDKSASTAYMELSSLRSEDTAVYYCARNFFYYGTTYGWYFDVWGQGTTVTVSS | MFI | 142
